Molecular target: Ephrin type-B receptor 4 (Homo sapiens)
Sequence (P54760 whole entry): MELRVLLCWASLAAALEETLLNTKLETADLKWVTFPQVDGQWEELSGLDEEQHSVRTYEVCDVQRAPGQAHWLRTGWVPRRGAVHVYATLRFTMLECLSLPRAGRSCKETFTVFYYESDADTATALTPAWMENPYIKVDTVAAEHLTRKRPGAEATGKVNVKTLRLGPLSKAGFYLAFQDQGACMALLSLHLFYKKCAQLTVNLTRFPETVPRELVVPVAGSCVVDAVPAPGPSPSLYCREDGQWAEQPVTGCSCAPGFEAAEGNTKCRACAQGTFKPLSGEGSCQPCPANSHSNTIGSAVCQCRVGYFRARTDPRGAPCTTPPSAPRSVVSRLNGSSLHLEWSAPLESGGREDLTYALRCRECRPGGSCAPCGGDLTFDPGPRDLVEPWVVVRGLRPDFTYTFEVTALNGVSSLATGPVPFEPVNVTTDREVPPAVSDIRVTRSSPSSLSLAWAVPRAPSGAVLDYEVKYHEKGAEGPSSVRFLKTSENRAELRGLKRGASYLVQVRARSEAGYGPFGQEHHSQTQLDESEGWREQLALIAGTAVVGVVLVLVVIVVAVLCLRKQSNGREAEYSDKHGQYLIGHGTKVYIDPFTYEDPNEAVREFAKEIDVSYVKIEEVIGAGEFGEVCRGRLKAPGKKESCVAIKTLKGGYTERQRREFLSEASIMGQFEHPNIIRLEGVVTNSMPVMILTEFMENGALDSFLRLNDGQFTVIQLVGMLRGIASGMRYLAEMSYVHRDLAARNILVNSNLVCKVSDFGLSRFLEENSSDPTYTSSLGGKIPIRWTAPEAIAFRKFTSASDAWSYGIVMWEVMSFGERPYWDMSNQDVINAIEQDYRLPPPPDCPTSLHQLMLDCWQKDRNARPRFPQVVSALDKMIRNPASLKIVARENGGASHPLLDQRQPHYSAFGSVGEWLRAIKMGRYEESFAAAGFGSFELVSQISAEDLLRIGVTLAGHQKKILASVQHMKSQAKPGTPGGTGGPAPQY
pIC50: −log10 of the molar value.
measurement.kind: pIC50

>>> observed_result("FC(F)(F)c1ccc(-c2cn(Cc3ccc(-c4cncnc4)cc3)nn2)cc1")
"< 6.00"

From here, focus on the item given below.
Lab note: "O=C(Nc1cccc(-c2cn(Cc3ccc(-c4cncnc4)cc3)nn2)c1)C1CC1" gave pIC50 of < 6.00

meta.source: ChEMBL document CHEMBL4422634
